Assay: Selectivity index, ratio of CC50 for rat L6 cells to IC50 for Trypanosoma brucei rhodesiense STIB900 trypomastigote
Assay type: toxicity
Settings: read-out: Ratio CC50/IC50
Reported selectivity ratio by item:
A bare number is all that is needed in reply.

Examples from the recorded data:
>  <Compound>
Clc1ccc(C(c2c[nH]cc2-c2ccc(-c3ccncc3)cc2)n2ccnc2)c(Cl)c1 (centres undefined)

>  <Quantity name>
selectivity ratio

>  <Obs value>
2

$$$$
>  <Compound>
c1ccc(C(c2ccn(-c3ccccc3)c2)n2ccnc2)cc1 (centres undefined)

>  <Quantity name>
selectivity ratio

>  <Obs value>
2

$$$$
>  <Compound>
Fc1ccc(C(c2ccn(-c3ccc(F)cc3)c2)n2ccnc2)cc1 (centres undefined)

>  <Quantity name>
selectivity ratio

>  <Obs value>
2

$$$$

// below: selectivity ratio requested for another compound
Memo: Fc1ccc(C(c2ccn(-c3ccc(Cl)cc3)c2)n2ccnc2)cc1 (centres undefined) , reported selectivity ratio: 2
